In this section we review reported inhibition at 1 µM values for a set of compounds.
EXPERIMENTAL_TARGET: human recombinant adrenergic α1D receptor (Homo sapiens, UniProt P25100)
Construct: expressed in transfected cells; host or cells: human embryonic kidney (HEK-293) cells
Sequence (P25100 1-572): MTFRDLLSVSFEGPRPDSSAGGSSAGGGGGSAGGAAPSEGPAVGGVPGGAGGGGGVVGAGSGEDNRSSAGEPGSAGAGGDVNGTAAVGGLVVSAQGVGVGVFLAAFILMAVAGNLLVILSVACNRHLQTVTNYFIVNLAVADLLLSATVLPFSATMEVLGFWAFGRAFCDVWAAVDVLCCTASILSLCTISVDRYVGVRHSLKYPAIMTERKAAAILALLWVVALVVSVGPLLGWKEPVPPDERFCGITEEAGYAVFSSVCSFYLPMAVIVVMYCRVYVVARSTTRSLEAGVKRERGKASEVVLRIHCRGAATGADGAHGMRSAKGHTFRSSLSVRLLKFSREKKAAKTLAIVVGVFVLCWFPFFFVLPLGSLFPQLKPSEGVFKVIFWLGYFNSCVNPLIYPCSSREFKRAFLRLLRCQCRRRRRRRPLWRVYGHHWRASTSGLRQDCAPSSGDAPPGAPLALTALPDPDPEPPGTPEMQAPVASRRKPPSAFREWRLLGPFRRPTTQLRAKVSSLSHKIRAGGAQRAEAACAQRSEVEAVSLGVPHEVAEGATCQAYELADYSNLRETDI
ASSAY: Adrenergic α1D radioligand binding ([3H]Prozosin)
EXPERIMENTAL_SETUP: percent inhibition of specific binding; compound at 1 μM; read-out: Inhibition of ligand binding, Adrenergic α1D
Experimental: Compounds of invention were incubated with 0.6 nM [^3H]Prozosin for 60 min. at 25° C. Non-specific binding was estimated in the presence of 10 μM phentolamine. Receptor proteins were filtered and washed, the filters were then counted to determine [^3H]Prozosin specifically bound. Compounds were screened at 1 μM or lower, using 1% DMSO as vehicle. Biochemical assay results are presented as the percent inhibition of specific binding in Table 9.

COMPOUND: Cc1ccc(/C=C/Cn2c3c(c4cc(Cl)ccc42)CN(C)CC3)cn1 [Compound 125]
EXPERIMENTAL_TARGET: human recombinant adrenergic α1D receptor (Homo sapiens, UniProt P25100)
UNIT_INFO: %
inhibition at 1 µM: 51

COMPOUND: Cc1ccc(C(O)Cn2c3c(c4ccccc42)CN(C)CC3)cc1 (racemic) [Compound 53]
EXPERIMENTAL_TARGET: human recombinant adrenergic α1D receptor (Homo sapiens, UniProt P25100)
UNIT_INFO: %
inhibition at 1 µM: 55

COMPOUND: COc1ccc(/C(C)=C/n2c3c(c4cc(Cl)ccc42)CN(C)CC3)cc1F [Compound 93]
EXPERIMENTAL_TARGET: human recombinant adrenergic α1D receptor (Homo sapiens, UniProt P25100)
UNIT_INFO: %
inhibition at 1 µM: 96

COMPOUND: C/C(=C\n1c2c(c3ccccc31)CN(C)CC2)c1ccc(F)cc1 [Compound 205]
EXPERIMENTAL_TARGET: human recombinant adrenergic α1D receptor (Homo sapiens, UniProt P25100)
UNIT_INFO: %
inhibition at 1 µM: 90

COMPOUND: CN1CCc2c(c3cc(Cl)ccc3n2/C=C(/c2ccc(F)cc2)C2CC2)C1 [Compound 110]
EXPERIMENTAL_TARGET: human recombinant adrenergic α1D receptor (Homo sapiens, UniProt P25100)
UNIT_INFO: %
inhibition at 1 µM: 86
